From: patent US6914045B2

Measured MIC Enterococcus faecalis (GC 4552) of individual entries
Tested on: Enterococcus sp.
Experiment: in vitro antibacterial evaluation, MIC by broth dilution
Type: cell-based
Conditions: broth dilution, inoculum 5×10^5 CFU/mL, 18 hours at 35° C.; strain GC 4552
Kindly provide the numeric value in µg/mL only, without the unit symbol.

| compound | units-label | experimental-value |
| --- | --- | --- |
| CC(c1ccccc1)C1NC(=O)CNC(=O)C(CO)NC(=O)C(C(O)C2CNC(=N)N2C2OC(CO)C(O)C(O)C2O)NC(=O)C(C(O)C2CNC(=N)N2)NC(=O)C(Cc2ccc(OC3OC(CO)C(OC4OC5COC(c6ccc(-c7cccs7)cc6)OC5C(O)C4O)C(O)C3O)cc2)NC1=O (stereo not drawn) [Example 163] | µg/mL | 8 |
| COc1ccc(Oc2cccc(C3OCC4OC(OC5C(CO)OC(Oc6ccc(CC7NC(=O)C(C(C)c8ccccc8)NC(=O)CNC(=O)C(CO)NC(=O)C(C(O)C8CNC(=N)N8C8OC(CO)C(O)C(O)C8O)NC(=O)C(C(O)C8CNC(=N)N8)NC7=O)cc6)C(O)C5O)C(O)C(O)C4O3)c2)cc1 (stereo not drawn) [Example 180] | µg/mL | 2 |
| CC(c1ccccc1)C1NC(=O)CNC(=O)C(CO)NC(=O)C(C(O)C2CNC(=N)N2C2OC(CO)C(O)C(O)C2O)NC(=O)C(C(O)C2CNC(=N)N2)NC(=O)C(Cc2ccc(OC3OC(CO)C(OC4OC5COC6(CC7CCC6(C)C7(C)C)OC5C(O)C4O)C(O)C3O)cc2)NC1=O (stereo not drawn) [Example 215] | µg/mL | 1 |
| COc1ccc(COCC2OC(OC3C(CO)OC(Oc4ccc(CC5NC(=O)C(C(C)c6ccccc6)NC(=O)CNC(=O)C(CO)NC(=O)C(C(O)C6CNC(=N)N6C6OC(CO)C(O)C(O)C6O)NC(=O)C(C(O)C6CNC(=N)N6)NC5=O)cc4)C(O)C3O)C(O)C(O)C2O)cc1 (stereo not drawn) [Example 232] | µg/mL | 32 |
| CC(c1ccccc1)C1NC(=O)CNC(=O)C(CO)NC(=O)C(C(O)C2CNC(=N)N2C2OC(CO)C(O)C(O)C2O)NC(=O)C(C(O)C2CNC(=N)N2)NC(=O)C(Cc2ccc(OC3OC(CO)C(OC4OC5COC6(CCCCC6(C)C)OC5C(O)C4O)C(O)C3O)cc2)NC1=O (stereo not drawn) [Example 205] | µg/mL | 4 |

Exercise: What measured MIC Enterococcus faecalis (GC 4552) goes with CC(c1ccccc1)C1NC(=O)CNC(=O)C(CO)NC(=O)C(C(O)C2CNC(=N)N2C2OC(CO)C(O)C(O)C2O)NC(=O)C(C(O)C2CNC(=N)N2)NC(=O)C(Cc2ccc(OC3OC(CO)C(OC4OC5COC(c6ccc(Oc7ccc(C(C)(C)C)cc7)cc6)OC5C(O)C4O)C(O)C3O)cc2)NC1=O (stereo not drawn) [Example 181] ?
Key: 2

Exercise: Same question, CC(c1ccccc1)C1NC(=O)CNC(=O)C(CO)NC(=O)C(C(O)C2CNC(=N)N2C2OC(CO)C(O)C(O)C2O)NC(=O)C(C(O)C2CNC(=N)N2)NC(=O)C(Cc2ccc(OC3OC(CO)C(OC4OC5COC(c6cc7c(cc6Cl)OCO7)OC5C(O)C4O)C(O)C3O)cc2)NC1=O (stereo not drawn) [Example 158] this time
Key: 8

Exercise: Same question, CC(c1ccccc1)C1NC(=O)CNC(=O)C(CO)NC(=O)C(C(O)C2CNC(=N)N2C2OC(CO)C(O)C(O)C2O)NC(=O)C(C(O)C2CNC(=N)N2)NC(=O)C(Cc2ccc(OC3OC(CO)C(OC4OC5COC6(CCCCC6C)OC5C(O)C4O)C(O)C3O)cc2)NC1=O (stereo not drawn) [Example 204] this time
Key: 16

Exercise: Same question, CCCCN1CC(C(O)C2NC(=O)C(C(O)C3CNC(=N)N3)NC(=O)C(Cc3ccc(OC4OC(CO)C(OC5OC6COC7(OC6C(O)C5O)C5CC6CC(C5)CC7C6)C(O)C4O)cc3)NC(=O)C(C(C)c3ccccc3)NC(=O)CNC(=O)C(CO)NC2=O)N(C2OC(CO)C(O)C(O)C2O)C1=N (stereo not drawn) [Example 224] this time
Key: 4
